- assayed_target: TYK2 (Homo sapiens)
- Construct: 5 μl of catalytic domain recombinant Kinase enzyme+Tyr peptide substrate (Invitrogen, Calif.)
- test_summary: Z'-LYTE kinase assay, TYK2 tyrosine phosphorylation activity
Measured IC50 accompanies every entry in the list below.

Some solved entries appear below for comparison.
GET /values?readout=IC50&item= NC(=O)c1cnc(Nc2cccc(NC(=O)C3CCOC3)c2)nc1NCc1ccccc1 (centres unmarked) [Example 203]
1 to 10 nM

GET /values?readout=IC50&item= NC(=O)c1cnc(Nc2ccc(N3CCCC3)c(NC(=O)N3CCCC3)c2)nc1NCc1ccccc1 [Example 159]
10 to 100 nM

GET /values?readout=IC50&item= CC(=O)Nc1cccc(Nc2ncc(C(N)=O)c(Nc3ccc(S(C)(=O)=O)cc3)n2)c1 [Example 197]
10 to 100 nM

GET /values?readout=IC50&item= CC(C)CNc1nc(Nc2ccc(Cl)c(NC(=O)N3CCCC3)c2)ncc1C(N)=O [Example 236]
10 to 100 nM

GET /values?readout=IC50&item= NC(=O)c1cnc(Nc2ccc(Cl)c(NC(=O)N3CCOCC3)c2)nc1NCc1ccccc1 [Example 182]
1 to 10 nM

Field: next molecule
GET /values?readout=IC50&item= CC(=O)Nc1cccc(Nc2ncc(C(N)=O)c(Nc3cccc4c3ccn4C)n2)c1 [Example 184]
1 to 10 nM

* * *

- assayed_target: JAK3 (Homo sapiens, UniProt P52333)
- Construct: 5 μl of catalytic domain recombinant Kinase enzyme+Tyr peptide substrate (Invitrogen, Calif.)
- Sequence (P52333 822-1111 limits assumed): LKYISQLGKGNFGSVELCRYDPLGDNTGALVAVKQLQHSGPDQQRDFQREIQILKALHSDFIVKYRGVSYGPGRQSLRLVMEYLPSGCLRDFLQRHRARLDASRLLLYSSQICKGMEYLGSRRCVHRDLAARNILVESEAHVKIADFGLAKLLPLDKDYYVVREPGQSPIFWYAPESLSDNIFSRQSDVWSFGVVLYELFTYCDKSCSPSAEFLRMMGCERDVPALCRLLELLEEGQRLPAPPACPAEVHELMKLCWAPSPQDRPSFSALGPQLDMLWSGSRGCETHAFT
- test_summary: Z'-LYTE kinase assay, JAK3 tyrosine phosphorylation activity
experimental_endpoint: IC50

GET /values?readout=IC50&item= C[C@@H](Nc1nc(Nc2ccc(Cl)c(NC(N)=O)c2)ncc1C(N)=O)c1ccccc1
1 to 10 nM

GET /values?readout=IC50&item= CC(=O)Nc1cccc(Nc2ncc(C(N)=O)c(N[C@H](CO)Cc3ccccc3)n2)c1
10 to 100 nM

GET /values?readout=IC50&item= CN(C)C(=O)Nc1ccc(F)c(Nc2ncc(C(N)=O)c(NCc3ccccc3)n2)c1
10 to 100 nM

GET /values?readout=IC50&item= COCC(=O)Nc1ccc(F)c(Nc2ncc(C(N)=O)c(NCc3ccccc3)n2)c1
10 to 100 nM

Others:
GET /values?readout=IC50&item= CC(=O)Nc1cc(Cl)cc(Nc2ncc(C(N)=O)c(NCc3cccc(F)c3)n2)c1
10 to 100 nM

GET /values?readout=IC50&item= CC(=O)Nc1cccc(Nc2ncc(C(N)=O)c(NCc3ccc(Cl)cc3)n2)c1
10 to 100 nM

GET /values?readout=IC50&item= CC(=O)Nc1cccc(Nc2cc(NCc3cccc(F)c3)c(C(N)=O)cn2)c1
1 to 10 nM

GET /values?readout=IC50&item= NC(=O)c1cnc(Nc2ccc(F)c(NC(=O)N3CCCC3)c2)cc1NCc1cccc(F)c1
10 to 100 nM

* * *

- assayed_target: TYK2 (Homo sapiens, UniProt P29597)
- Construct: 5 μl of catalytic domain recombinant Kinase enzyme+Tyr peptide substrate (Invitrogen, Calif.)
- Sequence (P29597 897-1176 limits assumed): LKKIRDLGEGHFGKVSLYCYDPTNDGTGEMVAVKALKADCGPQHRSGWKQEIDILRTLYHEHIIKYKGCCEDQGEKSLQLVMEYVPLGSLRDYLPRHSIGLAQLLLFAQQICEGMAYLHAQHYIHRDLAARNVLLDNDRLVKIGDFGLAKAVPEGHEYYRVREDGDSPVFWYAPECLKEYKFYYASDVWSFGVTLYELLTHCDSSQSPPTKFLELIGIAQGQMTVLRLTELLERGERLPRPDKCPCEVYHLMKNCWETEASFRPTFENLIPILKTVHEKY
- test_summary: Z'-LYTE kinase assay, TYK2 tyrosine phosphorylation activity
pIC50: −log10 of the molar value.
experimental_endpoint: pIC50

Some solved entries appear below for comparison.
GET /values?readout=pIC50&item= CC(=O)Nc1cccc(Nc2ncc(C(N)=O)c(Nc3cccc4nn(C)cc34)n2)c1
< 6.00

GET /values?readout=pIC50&item= NC(=O)Nc1cc(Nc2ncc(C(N)=O)c(NCc3ccccc3)n2)ccc1Cl
7.00 to 8.00

GET /values?readout=pIC50&item= COC(=O)Nc1cc(Nc2ncc(C(N)=O)c(N[C@H](C)c3ccccc3)n2)ccc1Cl
6.00 to 7.00

GET /values?readout=pIC50&item= CC(=O)Nc1cccc(Nc2cc(NC3Cc4ccccc4C3)c(C(N)=O)cn2)c1
6.00 to 7.00

GET /values?readout=pIC50&item= CC(=O)Nc1cccc(Nc2ncc(C(N)=O)c(NCC3CCCN(C(=O)OCc4ccccc4)C3)n2)c1 (centres unmarked)
6.00 to 7.00

Others:
GET /values?readout=pIC50&item= COCC(=O)Nc1cccc(Nc2ncc(C(N)=O)c(NCC(F)(F)F)n2)c1
7.00 to 8.00

GET /values?readout=pIC50&item= CC(=O)Nc1cccc(Nc2ncc(C(N)=O)c(NCC3CCC3)n2)c1
8.00 to 9.00

GET /values?readout=pIC50&item= NC(=O)c1cnc(Nc2cccc(NC(=O)C3CCC3)c2)nc1NCc1ccccc1
7.00 to 8.00

GET /values?readout=pIC50&item= CC(=O)Nc1cc(Nc2ncc(C(N)=O)c(NCc3cccc(F)c3)n2)ccc1OCCN1CCCC1
7.00 to 8.00

GET /values?readout=pIC50&item= CC(=O)Nc1cccc(Nc2ncc(C(N)=O)c(NCc3ccncc3)n2)c1
7.00 to 8.00

GET /values?readout=pIC50&item= C[C@H]1CCCN1C(=O)Nc1cccc(Nc2ncc(C(N)=O)c(NCc3ccccc3)n2)c1
8.00 to 9.00

GET /values?readout=pIC50&item= CC(=O)Nc1cccc(Nc2ncc(C(N)=O)c(NCC3CCCN(S(C)(=O)=O)C3)n2)c1 (centres unmarked)
7.00 to 8.00
